Experiment: Pharmacokinetics of Compound 1 in combination with MK-3475 in subjects with various cancers
Format: in vivo, human
Conditions: by dose, 300 mg BID, steady state C1D8, geometric mean
measure name: Cmax (nM)
Field format: number, assumed nM, no unit text.

Ask: Read the entry NS(=O)(=O)NCCNc1nonc1C(=NO)Nc1ccc(F)c(Br)c1 and write its reported Cmax.
Result: 2510

====

Test: Pharmacokinetics of Compound 1 in combination with MK-3475 in subjects with various cancers
Type: in vivo, human
Conditions: human, plasma, oral, 100 mg, Diagnosis NSCLC PD-L1 High, first dose, median; read-out: tmax
measure name: tmax

Ask: Give me measured tmax, please, for this compound: NS(=O)(=O)NCCNc1nonc1C(=NO)Nc1ccc(F)c(Br)c1
Result: 1.5 h

Recorded values, source patent US20180353483A1.
